- Target system: Replicative DNA helicase DnaB (Mycobacterium tuberculosis)
- Sequence (P9WMR3 1-399, added parts left off): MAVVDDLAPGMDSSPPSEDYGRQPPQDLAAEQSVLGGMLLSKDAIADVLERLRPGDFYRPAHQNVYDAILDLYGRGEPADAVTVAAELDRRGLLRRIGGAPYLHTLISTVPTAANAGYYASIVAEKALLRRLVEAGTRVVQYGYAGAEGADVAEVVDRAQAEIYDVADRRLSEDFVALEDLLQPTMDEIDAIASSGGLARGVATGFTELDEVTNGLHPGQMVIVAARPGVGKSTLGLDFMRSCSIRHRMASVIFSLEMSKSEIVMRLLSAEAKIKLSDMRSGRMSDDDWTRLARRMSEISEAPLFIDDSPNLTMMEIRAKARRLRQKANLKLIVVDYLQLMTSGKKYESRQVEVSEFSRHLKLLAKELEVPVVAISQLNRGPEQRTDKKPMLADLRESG
- Procedure text: DnaB intein splicing inhibitors, dose response, biochemical, cell-free fluorescence (AID 449749)
- Format: functional
Calls of active or inactive are those of the source.
Answer with one of the outcomes 1.0 (active), 0.0 (inactive)

// below: answered compounds
> print(dat)
                                   compound                             target.system  category
1      O=C1c2cc([N+](=O)[O-])ccc2-c2ncccc21  Replicative DNA helicase DnaB (Mycobacterium tuberculosis)       1.0
2  Cc1cc(C)cc(Oc2coc3cc(OC(=O)c4cccs4)ccc3c2=O)c1  Replicative DNA helicase DnaB (Mycobacterium tuberculosis)       1.0
3  O=C(C[S+]([O-])c1ccc(C(F)(F)F)cc1[N+](=O)[O-])Oc1ccccc1 (stereo not given)  Replicative DNA helicase DnaB (Mycobacterium tuberculosis)       1.0
4  COCc1n[nH]c2c1C(c1ccccc1OC)C(C#N)=C(N)O2 (stereo not given)  Replicative DNA helicase DnaB (Mycobacterium tuberculosis)       1.0
5  O=C1C(Nc2ccccc2)=C/C(=N/S(=O)(=O)c2cccs2)c2ccccc21  Replicative DNA helicase DnaB (Mycobacterium tuberculosis)       1.0
6  O=C(/C=C/c1ccco1)c1ccc(NC(=O)C23CC4CC(CC(C4)C2)C3)cc1  Replicative DNA helicase DnaB (Mycobacterium tuberculosis)       0.0

Ask | Hi, do you know how CC(=O)Nc1ccc(S(=O)(=O)NC2=C(N3CCN(c4ccc(F)cc4)CC3)C(=O)c3ccccc3C2=O)cc1 came out in this test?
Reply | 1.0

Ask | State the result this test recorded for N#Cc1c(N)n(CCOC(=O)c2ccc(Cl)cc2)c2nc3ccccc3nc12 .
Reply | 1.0

Ask | What classification did COc1ccc(N(C(=O)CCl)C(C(=O)NCCc2ccccc2)c2cccs2)cc1Cl (stereo not given) end up with in this test?
Reply | 1.0

Ask | For CCOc1cc(C2C(C#N)=C(N)Oc3[nH]nc(CC)c32)ccc1OCCN1CCOCC1 (stereo not given) , which call appears in the assay record?
Reply | 1.0

* * *

- Target system: Corticotropin-releasing factor receptor 2/Corticotropin-releasing factor-binding protein (Homo sapiens, UniProt P24387+Q13324)
- Sequence (Q13324 whole entry): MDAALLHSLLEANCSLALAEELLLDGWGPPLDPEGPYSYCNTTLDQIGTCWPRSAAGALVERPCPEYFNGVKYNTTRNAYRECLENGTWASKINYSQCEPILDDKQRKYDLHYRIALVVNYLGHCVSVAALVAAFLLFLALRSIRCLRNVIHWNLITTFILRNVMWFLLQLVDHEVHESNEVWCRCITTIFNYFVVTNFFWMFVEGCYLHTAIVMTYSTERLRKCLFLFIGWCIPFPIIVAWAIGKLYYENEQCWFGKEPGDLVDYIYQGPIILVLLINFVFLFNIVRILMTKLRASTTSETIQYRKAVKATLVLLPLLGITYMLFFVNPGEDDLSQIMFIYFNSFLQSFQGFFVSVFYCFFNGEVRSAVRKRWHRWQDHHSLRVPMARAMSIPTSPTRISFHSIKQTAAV
- Sequence (P24387 whole entry): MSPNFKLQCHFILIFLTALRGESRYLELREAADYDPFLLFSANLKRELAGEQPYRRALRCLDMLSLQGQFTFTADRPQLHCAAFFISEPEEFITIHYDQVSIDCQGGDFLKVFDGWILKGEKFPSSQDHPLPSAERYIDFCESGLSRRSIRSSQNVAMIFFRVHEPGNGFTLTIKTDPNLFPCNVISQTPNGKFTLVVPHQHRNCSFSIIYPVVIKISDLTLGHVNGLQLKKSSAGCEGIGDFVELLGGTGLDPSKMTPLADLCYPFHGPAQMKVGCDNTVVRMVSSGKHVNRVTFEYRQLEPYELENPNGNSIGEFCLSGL
- Procedure text: Dose Response confirmation of uHTS hits for small molecule antagonists of the CRF-binding protein and CRF-R2 receptor complex.
- Type: functional
- Assay context: read-out: IC50_Mean
Activity calls are given as the source filed them.
Parameter call: string, one of 1 = active, 0 = inactive

Use these answered entries as a reference point.
> print(dat)
                                   compound  category
1  C=CCNC(=O)c1cccc2c1C(=O)c1ccc(N3CCOCC3)cc1S2(=O)=O         0
2  O=c1c([N+](=O)[O-])c(NC2CCCCC2)c2ccccc2n1-c1ccccc1         1
3  CCCC(=O)NC(C)c1nc2ccccc2[nH]1 (stereo unspecified)         0
4  CCOc1ccc(CCNC(=O)c2cccc(NC3=NC4CS(=O)(=O)CC4S3)c2)cc1OCC (stereo unspecified)         0
5    CCOC(=O)c1ccc(NC(=O)CN2C(=O)CSC2=O)cc1         0

Moving on to another compound below.
Ask | Per the assay record, what outcome was assigned to Cc1cc(C)n(CCC(=O)N=Nc2c(O)[nH]c3ccc(Br)cc23)n1 ?
Reply | 0

* * *

- Target system: Fatty acid synthase (Homo sapiens)
- Sequence (P49327 whole entry): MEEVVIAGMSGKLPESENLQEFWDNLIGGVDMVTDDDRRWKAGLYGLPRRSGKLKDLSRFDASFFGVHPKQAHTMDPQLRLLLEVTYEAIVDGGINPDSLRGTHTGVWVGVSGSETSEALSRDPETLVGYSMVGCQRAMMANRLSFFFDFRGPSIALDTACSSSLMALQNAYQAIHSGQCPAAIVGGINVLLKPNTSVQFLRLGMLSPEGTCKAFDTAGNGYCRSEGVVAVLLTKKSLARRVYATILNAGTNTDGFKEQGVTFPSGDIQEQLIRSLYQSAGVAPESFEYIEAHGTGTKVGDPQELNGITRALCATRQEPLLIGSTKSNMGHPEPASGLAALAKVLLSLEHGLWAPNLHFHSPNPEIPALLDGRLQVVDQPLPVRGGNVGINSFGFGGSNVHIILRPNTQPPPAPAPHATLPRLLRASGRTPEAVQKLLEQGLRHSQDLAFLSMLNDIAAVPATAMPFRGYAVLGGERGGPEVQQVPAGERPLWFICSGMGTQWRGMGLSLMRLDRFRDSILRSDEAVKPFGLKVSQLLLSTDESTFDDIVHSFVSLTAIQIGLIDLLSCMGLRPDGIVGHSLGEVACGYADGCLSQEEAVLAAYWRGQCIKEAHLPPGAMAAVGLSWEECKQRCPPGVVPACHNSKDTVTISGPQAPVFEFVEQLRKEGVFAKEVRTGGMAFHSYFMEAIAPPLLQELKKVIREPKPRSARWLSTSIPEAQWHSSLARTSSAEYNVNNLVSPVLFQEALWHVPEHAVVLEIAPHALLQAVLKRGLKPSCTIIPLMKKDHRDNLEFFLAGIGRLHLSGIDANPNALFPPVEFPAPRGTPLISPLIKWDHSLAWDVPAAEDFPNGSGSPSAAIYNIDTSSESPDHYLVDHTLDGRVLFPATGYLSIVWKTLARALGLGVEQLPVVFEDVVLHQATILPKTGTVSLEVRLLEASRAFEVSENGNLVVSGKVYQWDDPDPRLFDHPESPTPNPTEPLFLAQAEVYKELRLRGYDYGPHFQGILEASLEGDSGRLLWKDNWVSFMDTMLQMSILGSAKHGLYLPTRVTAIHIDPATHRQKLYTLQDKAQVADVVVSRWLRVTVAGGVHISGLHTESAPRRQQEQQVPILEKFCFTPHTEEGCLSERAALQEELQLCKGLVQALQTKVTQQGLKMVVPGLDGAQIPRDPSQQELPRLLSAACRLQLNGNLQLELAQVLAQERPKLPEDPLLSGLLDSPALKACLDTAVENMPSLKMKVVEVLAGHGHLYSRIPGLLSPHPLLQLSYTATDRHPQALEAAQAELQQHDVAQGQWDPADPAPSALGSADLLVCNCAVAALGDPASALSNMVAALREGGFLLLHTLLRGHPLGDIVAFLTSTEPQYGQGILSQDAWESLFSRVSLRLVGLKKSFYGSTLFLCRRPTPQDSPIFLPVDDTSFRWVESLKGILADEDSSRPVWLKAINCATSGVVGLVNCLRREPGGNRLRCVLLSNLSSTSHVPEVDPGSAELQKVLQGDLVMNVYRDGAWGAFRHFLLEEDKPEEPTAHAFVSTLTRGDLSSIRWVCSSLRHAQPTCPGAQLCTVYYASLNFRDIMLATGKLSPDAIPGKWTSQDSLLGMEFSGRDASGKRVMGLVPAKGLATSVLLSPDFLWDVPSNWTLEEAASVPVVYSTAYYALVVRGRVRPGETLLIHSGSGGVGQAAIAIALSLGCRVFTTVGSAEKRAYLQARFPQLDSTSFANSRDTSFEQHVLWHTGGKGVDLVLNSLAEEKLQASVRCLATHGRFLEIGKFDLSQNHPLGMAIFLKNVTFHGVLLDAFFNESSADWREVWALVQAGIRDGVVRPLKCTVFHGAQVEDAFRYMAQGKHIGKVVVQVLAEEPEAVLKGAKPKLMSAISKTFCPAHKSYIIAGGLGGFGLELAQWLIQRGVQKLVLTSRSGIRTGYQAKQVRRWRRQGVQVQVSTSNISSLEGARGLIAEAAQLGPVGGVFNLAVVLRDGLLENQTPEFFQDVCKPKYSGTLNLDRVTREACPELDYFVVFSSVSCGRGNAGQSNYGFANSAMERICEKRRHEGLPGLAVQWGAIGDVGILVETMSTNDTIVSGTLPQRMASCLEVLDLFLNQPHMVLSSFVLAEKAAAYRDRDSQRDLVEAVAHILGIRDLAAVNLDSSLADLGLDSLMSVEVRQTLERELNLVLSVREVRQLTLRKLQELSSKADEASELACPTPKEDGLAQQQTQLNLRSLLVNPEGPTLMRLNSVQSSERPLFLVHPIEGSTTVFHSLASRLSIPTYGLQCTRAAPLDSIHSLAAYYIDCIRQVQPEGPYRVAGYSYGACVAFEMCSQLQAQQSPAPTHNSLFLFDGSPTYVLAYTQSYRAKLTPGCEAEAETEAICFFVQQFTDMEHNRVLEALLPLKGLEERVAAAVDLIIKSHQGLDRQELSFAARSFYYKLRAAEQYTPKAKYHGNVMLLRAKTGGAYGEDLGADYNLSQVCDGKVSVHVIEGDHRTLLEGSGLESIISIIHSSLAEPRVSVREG
- Procedure text: inhibition of human FAS-TE enzyme activity – biochemical, endpoint fluorescence intensity, uHTS hits, dose response (AID 624327);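 note: fluorescence from hydrolysis of an O-methyl fluorescein acyl ester substrate by the enzyme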
- Format: functional
Activity calls are given as the source filed them.
# reported IC50; entries follow

> print(dat)
                                   compound       assay.value
1  O=C(Nc1ccc(OC(F)(F)F)cc1)Nc1cccc([N+](=O)[O-])c1  6.74 µM (active)

Now for the compound whose IC50 we want.
Ask | Dear colleague, I am looking for the recorded IC50 of the following compound: O=C(NC(Cc1c[nH]c2ccccc12)C(=O)Nc1ccc(F)c([N+](=O)[O-])c1)c1cccs1 (stereo unspecified)
Reply | 7.53 µM (active)

* * *

// values below are reported AC50
- Target system: Cytochrome P450 2C19 (Homo sapiens, UniProt P33261)
- Sequence (P33261 whole entry): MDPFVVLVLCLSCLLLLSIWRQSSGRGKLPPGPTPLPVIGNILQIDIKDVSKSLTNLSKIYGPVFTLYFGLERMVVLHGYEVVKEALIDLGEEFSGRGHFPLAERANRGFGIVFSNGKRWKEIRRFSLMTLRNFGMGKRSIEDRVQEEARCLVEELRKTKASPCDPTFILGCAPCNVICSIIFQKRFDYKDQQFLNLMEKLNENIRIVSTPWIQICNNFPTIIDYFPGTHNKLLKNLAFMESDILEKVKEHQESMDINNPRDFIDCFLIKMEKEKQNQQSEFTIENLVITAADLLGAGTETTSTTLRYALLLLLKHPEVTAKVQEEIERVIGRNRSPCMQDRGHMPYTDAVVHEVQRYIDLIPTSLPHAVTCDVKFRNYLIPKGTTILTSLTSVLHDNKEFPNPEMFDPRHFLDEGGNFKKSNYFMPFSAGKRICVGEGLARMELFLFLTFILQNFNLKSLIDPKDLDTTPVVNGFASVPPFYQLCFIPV
- Procedure text: Cytochrome panel assay with activity outcomes. Panel member name: p450-cyp2c19 Compounds with AC50 equal or less than 10 uM are considered active
- Type: functional
- Assay context: read-out: AC50

// below: answered compounds
> print(dat)
                                    compound             assay.value
 1  CCc1ccc(N(C(=O)c2csnn2)C(C(=O)NC(C)(C)C)c2ccncc2)cc1 (stereo unspecified)  2.82 µM (inconclusive)
 2  CCCCSc1nnc(-c2cc3c(C(F)(F)F)nn(C)c3s2)n1C    20 µM (inconclusive)
 3      CCn1c(Cc2ccccc2)nnc1SCC(=O)NC(C)(C)C  14.1 µM (inconclusive)
 4            COc1cccc(NC(S)=NN2CCN(C)CC2)c1  28.2 µM (inconclusive)
 5        CCCSc1nnc(CSc2nc3nc(C)cc(C)n3n2)o1  15.8 µM (inconclusive)
 6       CC(C)c1nnc(NC(=O)c2sc3ccccc3c2Cl)s1  22.4 µM (inconclusive)
 7     CN(C)c1ncc2nc(-c3ccccc3)c(=O)n(C)c2n1  39.8 µM (inconclusive)
 8     CCOc1c2ccc(C(=O)NCc3ccccc3OC)cc2nn1CC  39.8 µM (inconclusive)
 9  Cc1cc2ncn(/N=C/c3ccc([N+](=O)[O-])o3)c2cc1C  1.12 µM (inconclusive)
10  COCCn1c(=O)c(-c2cc(F)cc(F)c2)nc2cnc(Oc3ccccc3)nc21  39.8 µM (inconclusive)

Next up:
Ask | Endpoint output: AC50 of COc1ccccc1N1CCN(c2nc3c(C)cccn3c(=O)c2C=O)CC1 . Value?
Reply | 1.12 µM (inconclusive)

* * *

- Target system: Kappa-type opioid receptor (Homo sapiens)
- Assay type: functional
pEC50: −log10 of the molar value.
Measurement name: pEC50

Ask | Which value of pEC50 has been reported for N#Cc1ccc(-c2cccnc2)nc1SCC(=O)Nc1sc2c(c1C#N)CCC2 in the records?
Reply | < 4.46

* * *

Reported IC50 is given for each of the following molecules.
- Target system: Bcl-2-related protein A1 (Mus musculus, UniProt Q07440)
- Sequence (Q07440 whole entry): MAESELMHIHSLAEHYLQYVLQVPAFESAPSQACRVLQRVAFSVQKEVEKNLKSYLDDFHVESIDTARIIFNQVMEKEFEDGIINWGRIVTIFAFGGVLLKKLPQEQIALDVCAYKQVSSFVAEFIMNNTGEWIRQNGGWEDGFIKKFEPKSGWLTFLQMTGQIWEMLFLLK
- Procedure text: small-molecule antagonists of Bfl-1/BH3 interaction – biochemical, TR-FRET, mouse Bfl-1, confirmation (AID 621);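 note: TR-FRET binding of GST-Bfl-1 to FITC-labelled Bid peptide via terbium antibody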
Calls of active or inactive are those of the source.

Ask | Recorded IC50 for Cc1ccc(NC2=C(Cl)C(=O)N(c3ccc(C)cc3)C2=O)cc1 , please?
Reply | 2.54 µM (active)

Ask | Which value of IC50 has been reported for COc1ncccc1-c1nnn(-c2ccc(F)cc2)n1 in the records?
Reply | > 100 µM (not active)

Ask | Fill blank: measured IC50 of the molecule O=C1C(Cl)=C(Cl)C(=O)N1c1ccccc1Cl is ____.
Reply | 3.64 µM (active)

Ask | Param item = NC(=O)N1c2ccccc2CC(=O)c2ccccc21 [OXCARBAZEPINE] ; retrieve measured IC50.
Reply | > 100 µM (not active)

Ask | Which measured IC50 value corresponds to O=C1C(Cl)=C(N2CCN(c3ccc(Cl)c(Cl)c3)CC2)C(=O)N1c1ccc(Cl)c(Cl)c1 ?
Reply | 65.5 µM (active)

* * *

- Target system: Protein skinhead-1 (Caenorhabditis elegans, UniProt P34707)
- Sequence (P34707 whole entry): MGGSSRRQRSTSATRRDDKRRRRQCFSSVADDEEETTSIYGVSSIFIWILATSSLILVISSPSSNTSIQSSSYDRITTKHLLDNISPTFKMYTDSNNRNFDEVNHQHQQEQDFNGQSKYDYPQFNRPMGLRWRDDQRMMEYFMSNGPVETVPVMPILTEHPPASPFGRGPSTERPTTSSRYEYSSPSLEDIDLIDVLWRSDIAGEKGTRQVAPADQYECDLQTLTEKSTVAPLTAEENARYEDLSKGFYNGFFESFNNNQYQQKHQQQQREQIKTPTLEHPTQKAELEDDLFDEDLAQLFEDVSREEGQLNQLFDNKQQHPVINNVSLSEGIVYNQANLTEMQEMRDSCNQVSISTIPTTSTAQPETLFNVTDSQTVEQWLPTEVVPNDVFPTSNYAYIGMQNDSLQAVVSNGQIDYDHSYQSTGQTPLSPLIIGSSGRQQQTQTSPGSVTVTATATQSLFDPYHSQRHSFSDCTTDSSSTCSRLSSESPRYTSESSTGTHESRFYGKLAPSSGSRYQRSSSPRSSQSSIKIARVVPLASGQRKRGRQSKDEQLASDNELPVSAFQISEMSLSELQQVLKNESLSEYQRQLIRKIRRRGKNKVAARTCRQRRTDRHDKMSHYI
- Assay type: functional
Calls of active or inactive are those of the source.
Each entry below carries its recorded IC50.

Here is how some compounds turned out for IC50.
> print(dat)
                                test.smiles                             target.system          assay.value
1           Clc1ccc(Cn2nnc(-c3ccccc3)n2)cc1  Protein skinhead-1 (Caenorhabditis elegans, UniProt P34707)     12.6 µM (active)
2  Cc1nn(-c2ncc(C(F)(F)F)cc2Cl)c(=O)n1-c1ccccc1  Protein skinhead-1 (Caenorhabditis elegans, UniProt P34707)  > 100 µM (inactive)
3  COC(=O)c1cc(NC(=O)CN(c2ccc3c(c2)OCO3)S(C)(=O)=O)ccc1Cl  Protein skinhead-1 (Caenorhabditis elegans, UniProt P34707)  > 100 µM (inactive)

Ask | # query: IC50 of entry Cn1c(-c2ccc(Br)o2)nc2cc(Br)ccc21
Reply | > 100 µM (inactive)

Ask | Please give the measured IC50 for this compound: COC(=O)c1c(NC(=O)CN2CCN(Cc3ccc4c(c3)OCO4)CC2)sc(C)c1C
Reply | > 100 µM (inactive)

Ask | Consider the compound Cn1c2ccccc2c2cc(C(=O)OCC(=O)N3CC(=O)Nc4ccccc43)sc21 and give its measured IC50.
Reply | > 100 µM (inactive)
